subject_of_test: M1 muscarinic receptor (Homo sapiens)
Construct: expressed in transfected cells; host or cells: CHO (M1-CHO)
Sequence (P11229 whole entry): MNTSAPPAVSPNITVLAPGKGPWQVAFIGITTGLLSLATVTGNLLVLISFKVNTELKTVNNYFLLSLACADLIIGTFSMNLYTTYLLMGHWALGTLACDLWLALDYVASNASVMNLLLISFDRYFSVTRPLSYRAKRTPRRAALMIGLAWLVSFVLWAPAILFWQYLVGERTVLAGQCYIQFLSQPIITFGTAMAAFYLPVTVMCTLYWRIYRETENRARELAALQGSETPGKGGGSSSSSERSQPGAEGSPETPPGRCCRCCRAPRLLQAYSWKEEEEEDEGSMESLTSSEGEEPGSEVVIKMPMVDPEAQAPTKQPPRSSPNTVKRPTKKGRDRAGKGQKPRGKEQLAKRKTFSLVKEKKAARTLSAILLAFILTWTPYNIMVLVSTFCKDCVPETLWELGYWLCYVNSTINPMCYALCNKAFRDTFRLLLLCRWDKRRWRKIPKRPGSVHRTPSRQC
experiment: Functional mobilization of intracellular calcium (FLIPR) in CHO cells expressing M1
Type: cell-based
experimental_setup: CHO cells expressing M1, FLIPR calcium
What EC50 was measured for each of the following?

// each listed compound needs a value for EC50
1. CC(=O)CCC(=O)N[C@H]1CCC2(CCN(CCC(C)(C)C)CC2)c2ccccc21
2. CCN(C(=O)CCNC(C)=O)[C@@H]1CCC2(CCN(CCC(C)(C)C)CC2)c2ccccc21
3. CCCCN1CCC2(CC[C@H](NC(C)=O)c3ccccc32)CC1

Resp:
["< 2000 nM", "> 5000 nM", "2000 to 5000 nM"]

// each listed compound needs a value for EC50
1. CC(C)(C)CCN1CCC2(CCCc3ccccc32)CC1
2. CC(C)(C)CCN1CCC2(CC[C@@H](NC(=O)CC3CCOCC3)c3ccc(F)cc32)CC1
3. CC(=O)N1CCC[C@@H]1C(=O)N[C@@H]1CCC2(CCN(CCC(C)(C)C)CC2)c2ccccc21
4. CN(C)C(=O)N(C)[C@H]1CCC2(CCN(CCC(C)(C)C)CC2)c2ccccc21
5. CCN(C(=O)CC1CCCC1=O)[C@H]1CCC2(CCN(CCC(C)(C)C)CC2)c2ccccc21 (stereo partly shown)
6. CC(=O)N(C1CC1)C1CCC2(CCN(CCC(C)(C)C)CC2)c2ccccc21 (stereo not shown)

Resp:
2000 to 5000 nM
2000 to 5000 nM
2000 to 5000 nM
< 2000 nM
2000 to 5000 nM
< 2000 nM

* * *

What EC50 was measured for each of the following?
subject_of_test: UniProtKB P11229
experiment: Functional mobilization of intracellular calcium (FLIPR) in CHO cells expressing M1
experimental_setup: CHO cells expressing M1, FLIPR calcium

- C[C@@H](C(=O)N[C@H]1CCC2(CCN(CCC(C)(C)C)CC2)c2cc(F)ccc21)N1CCCC1=O: < 2 µM
- CC(=O)N[C@H]1CCC2(CCN(CC(C)C)CC2)c2ccccc21: 2 to 5 µM
- COC(=O)CN(C(C)=O)[C@H]1CCC2(CCN(CCC(C)(C)C)CC2)c2ccccc21: > 5 µM
- C[C@@H](O)CC(=O)N[C@@H]1CCC2(CCN(CCC(C)(C)C)CC2)c2ccccc21: 2 to 5 µM
- CCN(C(=O)C1CCOC1)[C@H]1CCC2(CCN(CCC(C)(C)C)CC2)c2ccccc21 (some centres unmarked): > 5 µM

// each listed compound needs a value for EC50
1. CC(C)(C)CCN1CCC2(CC[C@H](NC(=O)CC3CCOCC3)c3ccccc32)CC1
2. CCC(=O)N[C@@H]1CCC2(CCN(CCC(C)(C)C)CC2)c2ccccc21

Resp:
< 2 µM
> 5 µM

Req: Test system UniProtKB P11229; read-out EC50; what value for COC(C)(C)CCCC(C)CCN1CCC2(CC[C@H](NC(=O)N(C)C)c3ccccc32)CC1 (some centres unmarked) ?
Resp: > 5 µM

* * *

subject_of_test: M2 muscarinic receptor (Homo sapiens)
Construct: expressed in transfected cells; host or cells: CHO (M2-CHO)
Sequence (P08172 1-466): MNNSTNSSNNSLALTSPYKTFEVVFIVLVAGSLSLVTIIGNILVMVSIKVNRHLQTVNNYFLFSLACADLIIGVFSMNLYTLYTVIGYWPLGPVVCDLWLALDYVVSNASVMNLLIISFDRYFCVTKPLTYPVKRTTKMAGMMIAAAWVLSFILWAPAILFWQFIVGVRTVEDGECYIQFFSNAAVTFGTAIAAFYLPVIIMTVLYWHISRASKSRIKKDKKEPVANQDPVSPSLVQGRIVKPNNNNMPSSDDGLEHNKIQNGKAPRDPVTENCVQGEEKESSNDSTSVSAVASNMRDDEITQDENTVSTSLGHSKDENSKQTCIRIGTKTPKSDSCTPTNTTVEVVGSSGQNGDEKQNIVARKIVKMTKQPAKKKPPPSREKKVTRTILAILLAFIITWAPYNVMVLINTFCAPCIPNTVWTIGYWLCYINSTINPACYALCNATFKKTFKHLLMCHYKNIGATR
experiment: Functional mobilization of intracellular calcium (FLIPR) in CHO cells expressing M2
Type: cell-based
experimental_setup: CHO; 100% = maximum response obtained with the Carbachol control; read-out: M2 Efficacy
readout: Emax

Below, 5 compounds whose answers are already recorded.
* CCN(C(=O)C1CCCN1C(C)=O)[C@H]1CCC2(CCN(CCC(C)(C)C)CC2)c2ccccc21 (stereo partly drawn) | < 25%
* CC(=O)NCCC(=O)N[C@H]1CCC2(CCN(CCC(C)(C)C)CC2)c2cc(F)ccc21 | 25 to 100%
* CC(=O)CCC(=O)N[C@H]1CCC2(CCN(CCC(C)(C)C)CC2)c2ccccc21 | 25 to 100%
* CC(=O)N[C@@H]1c2ccccc2C2(CCN(CCC(C)(C)C)CC2)CC1(F)F | 25 to 100%
* CCN(C(=O)C(C)NC(C)=O)[C@H]1CCC2(CCN(CCC(C)(C)C)CC2)c2ccccc21 (stereo partly drawn) | < 25%

// each listed compound needs a value for Emax
1. CC(C)(C)CCN1CCC2(CC[C@@H](NC(=O)CN3CCCC3=O)c3ccc(F)cc32)CC1
2. CC(C)(C)CCN1CCC2(CCC(=O)c3ccccc32)CC1
3. CC(C)(C)CCN1CCC2(CC[C@H](NC(=O)CCN3CCCC3=O)c3ccccc32)CC1
4. CC(=O)N1CCCC1C(=O)N[C@H]1CCC2(CCN(CCC(C)(C)C)CC2)c2ccccc21 (stereo partly drawn)

Resp:
25 to 100%
25 to 100%
25 to 100%
< 25%
